Tested on: C. glabrata
Experiment: Checkerboard FIC assay in combination with fluconazole (MIC alone and in combination, FICI)
Assay type: cell-based, Candida glabrata
Settings: C. glabrata; FICI calculated using a fluconazole MIC of 16 μg/mL
Experimental: The ability of the compounds to synergize with azoles against C. glabrata was evaluated by the checkerboard assay, a common laboratory method used to evaluate synergy, antagonism, and indifference using fractional inhibitory concentrations (FICs) and FIC indices (FICI). The test compounds were supplied as a powder and dissolved in dimethylsulfoxide (DMSO) on the day of assay. Stock solutions were prepared at 640 ug/mL. […] FIC values were determined using a broth microdilution method (CLSI; 1, 3). […]
QUANTITY_MEASURED: FICI of combination resulting in fluconazole MIC of: 4 ug/mL

STRUCTURE_AS_SMILES: O=C(Cc1ccc(CCCCc2ccc(CC(=O)NO)cc2)cc1)NO
TARGET_DESC: C. glabrata
RESULT: > 0.188

STRUCTURE_AS_SMILES: O=C(Cc1ccc(CCCCc2ccc(NC(=O)CO)cc2)cc1)NO
TARGET_DESC: C. glabrata
RESULT: 0.500

STRUCTURE_AS_SMILES: O=C(Cc1ccc(CCCCc2ccc(-c3ccccc3)cc2)cc1)NO
TARGET_DESC: C. glabrata
RESULT: 0.155

STRUCTURE_AS_SMILES: O=C(Cc1ccc(CCCCC2CCCCC2)cc1)NO
TARGET_DESC: C. glabrata
RESULT: 0.605

STRUCTURE_AS_SMILES: O=C(Cc1ccc(CCCCc2ccc(OCCCN3CCOCC3)cc2)cc1)NO
TARGET_DESC: C. glabrata
RESULT: 0.500

STRUCTURE_AS_SMILES: O=C(Cc1ccc(CCCCc2ccc(C(=O)O)cc2)cc1)NO
TARGET_DESC: C. glabrata
RESULT: > 0.625

STRUCTURE_AS_SMILES: Nc1ccccc1CCCCc1ccc(CC(=O)NO)cc1
TARGET_DESC: C. glabrata
RESULT: 0.375

STRUCTURE_AS_SMILES: O=C(Cc1ccc(CCCCc2cccc(NC(=O)NCCN3CCOCC3)c2)cc1)NO
TARGET_DESC: C. glabrata
RESULT: 0.250

---

tested on: C. glabrata; assay: Checkerboard FIC assay in combination with fluconazole (MIC alone and in combination, FICI); assay type: cell-based, Candida glabrata; conditions: Nakaseomyces glabratus; MIC of the example compound alone against C. glabrata in the checkerboard assay, approximately 48 hr; read-out: Methylgene MIC

MOLECULE: CC(C(=O)NO)c1ccc(CCC(O)Cc2ccccc2)cc1 (centres unmarked) [Example 58]
MIC: > 16 µg/mL

MOLECULE: O=C(Cc1ccc(CCCC(O)c2ccccc2)cc1)NO (centres unmarked) [Example 25]
MIC: > 16 µg/mL

MOLECULE: CN(C)CCSCC(=O)Nc1cccc(CCCCc2ccc(CC(=O)NO)cc2)c1 [Example 44]
MIC: > 16 µg/mL

MOLECULE: Cn1cnc(CNC(=O)c2ccc(CCCCc3ccc(CC(=O)NO)cc3)cc2)c1 [Example 23]
MIC: > 8 µg/mL

MOLECULE: CC(=O)Nc1ccccc1CCCCc1ccc(CC(=O)NO)cc1 [Example 45]
MIC: > 16 µg/mL

MOLECULE: O=C(Cc1ccc(CCC(O)Cc2ccccc2)cc1)NO (centres unmarked) [Example 57]
MIC: > 16 µg/mL

MOLECULE: COC(=O)Nc1ccc(CCCCc2ccc(CC(=O)NO)cc2)cc1 [Example 48]
MIC: > 4 µg/mL

MOLECULE: O=C(Cc1ccc(C(O)CCCc2ccccc2)cc1)NO (centres unmarked) [Example 59]
MIC: > 16 µg/mL

---

test system: Candida glabrata; experiment: Minimal Inhibitory Concentration (MIC) assay, broth microdilution per CLSI; type: cell-based; details: Nakaseomyces glabratus; 48 hr reading (second value of cell 24 hr/48 hr); read-out: Minimum Inhibitory Concentrations against Yeast Isolates, Candida glabrata;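 also: two read times 24 hr and 48 hr of incubation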

STRUCTURE_AS_SMILES: CN1CCN(CCNC(=O)Nc2cccc(CCCCc3ccc(CC(=O)NO)cc3)c2)CC1
MIC: > 64 µg/mL

STRUCTURE_AS_SMILES: Nc1ccc(CCCCc2ccc(CC(=O)NO)cc2)cc1
MIC: > 8 µg/mL

STRUCTURE_AS_SMILES: O=C(Cc1ccc(CCCCc2ccc(C(=O)NCCCn3ccnc3)cc2)cc1)NO
MIC: > 8 µg/mL

STRUCTURE_AS_SMILES: O=C(Cc1ccc(CCCCc2ccccc2NC(=O)CO)cc1)NO
MIC: > 64 µg/mL

STRUCTURE_AS_SMILES: CN1CCC(C(=O)Nc2ccc(CCCCc3ccc(CC(=O)NO)cc3)cc2)CC1.Cl
MIC: > 64 µg/mL

STRUCTURE_AS_SMILES: O=C(Cc1ccc(CCCCc2ccc(NC(=O)CO)cc2)cc1)NO
MIC: > 8 µg/mL

STRUCTURE_AS_SMILES: COCCOCCOCCOCCC(=O)Nc1ccc(CCCCc2ccc(CC(=O)NO)cc2)cc1
MIC: > 64 µg/mL

STRUCTURE_AS_SMILES: CC(=O)Nc1ccc(CCCCc2ccc(CC(=O)NO)cc2)cc1
MIC: > 8 µg/mL

STRUCTURE_AS_SMILES: CC(C)(C(=O)NO)c1ccc(CCCCc2ccccc2)cc1
MIC: 0.5 µg/mL

STRUCTURE_AS_SMILES: Nc1cccc(CCCCc2ccc(CC(=O)NO)cc2)c1
MIC: > 32 µg/mL

STRUCTURE_AS_SMILES: CN1CCN(CCS(=O)(=O)Nc2ccc(CCCCc3ccc(CC(=O)NO)cc3)cc2)CC1
MIC: > 64 µg/mL

STRUCTURE_AS_SMILES: COc1ccc(CCCCc2ccc(CC(=O)NO)cc2)cc1
MIC: > 4 µg/mL

---

system: C. glabrata; experiment: Checkerboard FIC assay in combination with fluconazole (MIC alone and in combination, FICI); format: cell-based, Candida glabrata; conditions: concentration in combination as multiple of the compound's MIC alone; fluconazole MIC 8 ug/mL
QUANTITY_MEASURED: Multiple of compound MIC to synergize fluconazole MIC to 8 ug/mL

STRUCTURE_AS_SMILES: Nc1ccccc1CCCCc1ccc(CC(=O)NO)cc1
RESULT: (¼x)
--
STRUCTURE_AS_SMILES: CN(C)CCSCC(=O)Nc1ccc(CCCCc2ccc(CC(=O)NO)cc2)cc1
RESULT: (⅛x)
--
STRUCTURE_AS_SMILES: CC(=O)Nc1cccc(CCCCc2ccc(CC(=O)NO)cc2)c1
RESULT: (⅛x)
--
STRUCTURE_AS_SMILES: O=C(Cc1ccc(CCCCc2ccc(F)cc2F)cc1)NO
RESULT: (¼x)
--
STRUCTURE_AS_SMILES: COCCOCCOCCOCCC(=O)Nc1ccc(CCCCc2ccc(CC(=O)NO)cc2)cc1
RESULT: (⅛x)
--
STRUCTURE_AS_SMILES: COCCOCCOCC(=O)Nc1cccc(CCCCc2ccc(CC(=O)NO)cc2)c1
RESULT: (⅛x)

---

tested on: C. glabrata; assay: Checkerboard FIC assay in combination with fluconazole (MIC alone and in combination, FICI); assay type: cell-based, Candida glabrata; settings: C. glabrata; FICI using a fluconazole MIC of 128 μg/mL
Documented FICI of combination resulting in fluconazole MIC of: 4 ug/mL (value in parenthesis) across a set of compounds
QUANTITY_MEASURED: FICI of combination resulting in fluconazole MIC of: 4 ug/mL (value in parenthesis)

STRUCTURE_AS_SMILES: CC(=O)Nc1ccccc1CCCCc1ccc(CC(=O)NO)cc1
RESULT: > 0.531

STRUCTURE_AS_SMILES: CN1CCN(CCS(=O)(=O)Nc2ccc(CCCCc3ccc(CC(=O)NO)cc3)cc2)CC1
RESULT: > 0.531

STRUCTURE_AS_SMILES: O=C(Cc1ccc(CCCCc2ccc(C(=O)O)cc2)cc1)NO
RESULT: > 0.531

---

test system: C. glabrata; assay: Checkerboard FIC assay in combination with fluconazole (MIC alone and in combination, FICI); format: cell-based, Candida glabrata; conditions: C. glabrata; FICI using a fluconazole MIC of 128 μg/mL
Documented FICI of combination resulting in fluconazole MIC of: 8 ug/mL (value in parenthesis) across a set of compounds
QUANTITY_MEASURED: FICI of combination resulting in fluconazole MIC of: 8 ug/mL (value in parenthesis)

COMPOUND: CN1CCN(CCS(=O)(=O)Nc2ccc(CCCCc3ccc(CC(=O)NO)cc3)cc2)CC1 [Example 52]
TARGET_DESC: C. glabrata
VALUE_PREFIX: >
NUMERIC_READOUT: 0.313
--
COMPOUND: O=C(Cc1ccc(CCC/C(=N\O)c2ccccc2)cc1)NO [Example 27]
TARGET_DESC: C. glabrata
VALUE_PREFIX: =
NUMERIC_READOUT: 0.188
--
COMPOUND: O=C(Cc1ccc(CCCCc2ccc(-c3ccccc3)cc2)cc1)NO [Example 5]
TARGET_DESC: C. glabrata
VALUE_PREFIX: =
NUMERIC_READOUT: 0.093
--
COMPOUND: O=C(Cc1ccc(C(F)CCCc2ccccc2)cc1)NO (stereo not shown) [Example 61]
TARGET_DESC: C. glabrata
VALUE_PREFIX: =
NUMERIC_READOUT: 0.188
--
COMPOUND: CN1CCC(C(=O)Nc2cccc(CCCCc3ccc(CC(=O)NO)cc3)c2)CC1 [Example 43]
TARGET_DESC: C. glabrata
VALUE_PREFIX: =
NUMERIC_READOUT: 0.125
--
COMPOUND: O=C(Cc1ccc(CCCCc2cccc(NC(=O)NCCN3CCOCC3)c2)cc1)NO [Example 50]
TARGET_DESC: C. glabrata
VALUE_PREFIX: =
NUMERIC_READOUT: 0.188
--
COMPOUND: CN1CCN(CCNC(=O)Nc2cccc(CCCCc3ccc(CC(=O)NO)cc3)c2)CC1 [Example 49]
TARGET_DESC: C. glabrata
VALUE_PREFIX: =
NUMERIC_READOUT: 0.125
